B1: TERF1-interacting nuclear factor 2 (Homo sapiens), Q9BSI4 (parent)
chain: MATPLVAGPAALRFAAAASWQVVRGRCVEHFPRVLEFLRSLRAVAPGLVRYRHHERLCMGLKAKVVVELILQGRPWAQVLKALNHHFPESGPIVRDPKATKQDLRKILEAQETFYQQVKQLSEAPVDLASKLQELEQEYGEPFLAAMEKLLFEYLCQLEKALPTPQAQQLQDVLSWMQPGVSITSSLAWRQYGVDMGWLLPECSVTDSVNLAEPMEQNPPQQQRLALHNPLPKAKPGTHLPQGPSSRTHPEPLAGRHFNLAPLGRRRVQSQWASTRGGHKERPTVMLFPFRNLGSPTQVISKPESKEEHAIYTADLAMGTRAASTGKSKSPCQTLGGRALKENPVDLPATEQKENCLDCYMDPLRLSLLPPRARKPVCPPSLCSSVITIGDLVLDSDEEENGQGEGKESLENYQKTKFDTLIPTLCEYLPPSGHGAIPVSSCDCRDSSRPL

# Variants of: B1
# condition: with acd_human ACD
readout.kind: effect of a mutation on the interaction

mut: G237D
readout.kind: effect of a mutation on the interaction
experimental.result: with no effect
//
mut: E281K
readout.kind: effect of a mutation on the interaction
experimental.result: with no effect
//
mut: S245Y
readout.kind: effect of a mutation on the interaction
experimental.result: with no effect
